- Test system: HS 578T breast
- experimentalDetails: NCI-60 one-dose screen, 48 h
- appliedConditions: 10 µM unless noted
This is part of a sample that, as a whole, favours compounds with a hit. Of some 83,000 tested, about 20% had one in any assay. Activity calls are given as the source filed them. The calls were made as follows: active = growth percent below 10; inactive = the rest.
Permitted responses: y for active, n for inactive

compound	groupLabel
O=C(CCCCCCCCC(=O)N/N=C\c1cc(Cl)ccc1O)N/N=C\c1cc(Cl)ccc1O	n
CSCCC(NC(=O)c1ccccc1)C(=O)N/N=C1\S/C(=C/c2ccc(Cl)cc2)C(=O)N1C (centres undefined)	n
CC12CCC(/C(=C/NNc3ccc([N+](=O)[O-])cc3[N+](=O)[O-])C1=O)C2(C)C (centres undefined)	n
CC[C@]12C=CCN3CC[C@@]4(c5ccc(OC)cc5N(C)[C@H]4[C@@](O)(C(=O)OC)[C@@H]1OC(=O)CCCN1CCOCC1)[C@@H]32	n
COc1ccc2c(c1)c(-c1ccc(-c3cn(C)c4ccc(OC)cc34)[nH]1)cn2C	y

QUERY: Test call for this compound, please: CCOC(=O)CSc1nc2sc3c(c2c(=O)n1-c1ccc([N+](=O)[O-])cc1)CCCCC3
RESULT: n

QUERY: Which result was noted for this compound in the test: COc1ccc2nc(SCC(=O)Nc3ccccc3C)[nH]c2c1
RESULT: n

QUERY: Please share the test call associated with CC(=O)N(Cc1ccccc1)c1nc2ccc(O)c(CN(C)C)c2s1 .
RESULT: n

QUERY: Each compound tested received a call. Report the one for CCOC(=O)C1=C(c2ccccc2)N=c2s/c(=C/c3ccc(Br)cc3)c(=O)n2C1c1ccc(O)cc1 (centres undefined) .
RESULT: n
